test system: seeds of barley; assay: Germination rate of barley seeds; format: in vivo; conditions: barley seeds with lowered germination rate; 100 seeds, test solution at a given concentration, light, 25° C., after one week
Response field label takes Fulfilled when Germination rate (%) is strictly below 20% and Not fulfilled in all other cases.

Before answering, review these 5 worked examples.
COC(=O)COc1ccc(CCN(CC(=O)OC)Cc2ccc(OC)c(OC)c2)cc1 [SY94]	Not fulfilled
Oc1ccc(CCNCc2ccncc2)cc1 [SY106]	Fulfilled
Oc1ccc(CCNCc2ccc(O)c(O)c2)cc1 [SY90]	Fulfilled
COc1ccc(CCN(C)Cc2ccc(OC)c(OC)c2)cc1 [SY96]	Not fulfilled
Oc1ccc(CCNCc2ccoc2)cc1 [SY107]	Fulfilled

Here is another molecule to look at.
Does the reported Germination rate (%) of COc1ccc(NCC=Cc2ccc(OC)c(OC)c2)cc1 [SY87] stay below 20%?
Not fulfilled

Values compiled from patent US7432228B2.
